Test Target: C5aR (Homo sapiens (Human), UniProt P21730)
Sequence (P21730 whole entry): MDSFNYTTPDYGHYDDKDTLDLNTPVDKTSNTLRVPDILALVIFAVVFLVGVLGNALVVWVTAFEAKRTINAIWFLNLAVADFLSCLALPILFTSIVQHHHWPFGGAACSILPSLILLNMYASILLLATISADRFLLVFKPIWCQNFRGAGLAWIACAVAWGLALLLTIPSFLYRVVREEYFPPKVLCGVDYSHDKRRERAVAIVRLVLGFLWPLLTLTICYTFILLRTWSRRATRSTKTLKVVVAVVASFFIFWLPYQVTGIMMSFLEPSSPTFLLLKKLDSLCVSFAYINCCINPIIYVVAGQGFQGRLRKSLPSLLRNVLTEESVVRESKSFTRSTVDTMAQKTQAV
Test Name: Calcium mobilization (U937/C5aR or HEK293/C5aR cells, FLIPR)
Format: cell-based
Protocol Conditions: agonist human C5a at EC80, FLIPR
Experimental Readout: IC50

Some entries whose results are on file:
Which measured IC50 belongs to Cc1cccc(F)c1C(=O)N1C2CCC[C@@H]2C[C@H](C(=O)Nc2cccnc2)[C@@H]1c1ccc(NC2CCCC2)cc1 (relative stereo) [Compound 57] , tested on C5aR (Homo sapiens (Human), UniProt P21730)?
2 to 10 µM

Which measured IC50 belongs to Cc1cccc(F)c1C(=O)N1C(c2ccc(N(C)C3CCCC3)cc2)C(C(=O)Nc2ccc3c(c2)CCN(C)C3)C[C@@H]2CCC[C@@H]21 (relative stereo) [Compound 201] , tested on C5aR (Homo sapiens (Human), UniProt P21730)?
2 to 10 µM

Which measured IC50 belongs to Cc1cccc(F)c1C(=O)N1[C@@H]2CCC[C@@H]2C[C@H](C(=O)NC2CCN(C)CC2)[C@@H]1c1ccc(NC2CCCC2)cc1 [Compound 53] , tested on C5aR (Homo sapiens (Human), UniProt P21730)?
2 to 10 µM

More entries:
Which measured IC50 belongs to Cc1ccc(NC(=O)C2C[C@H]3CCC[C@H]3N(C(=O)c3cscn3)C2c2ccc(NC3CCCC3)cc2)cc1C(F)(F)F (relative stereo) [Compound 114] , tested on C5aR (Homo sapiens (Human), UniProt P21730)?
> 10 µM

Which measured IC50 belongs to Cc1cccc(F)c1C(=O)N1[C@@H]2CCC[C@@H]2C[C@H](C(=O)Nc2ccc3c(c2)OCCO3)[C@@H]1c1ccc(NC2CCCC2)cc1 (racemic) [Compound 71] , tested on C5aR (Homo sapiens (Human), UniProt P21730)?
2 to 10 µM

Which measured IC50 belongs to Cc1ccc(NC(=O)C2C[C@@H]3CCC[C@@H]3N(C(=O)c3c(C)cccc3F)C2c2ccc(NC3CCCC3)cc2)cc1C(F)(F)F (relative stereo) [Compound 193] , tested on C5aR (Homo sapiens (Human), UniProt P21730)?
< 0.05 µM

* * *

Test Target: C5aR (Homo sapiens (Human), UniProt P21730)
Test Name: Calcium mobilization (U937/C5aR or HEK293/C5aR cells, FLIPR)
Assay type: cell-based
Protocol Conditions: agonist human C5a at EC80, FLIPR
pIC50: −log10 of the molar value.
Form field: pIC50 (one value per entry).

Some entries whose results are on file:
Looking for the measured pIC50 of Cc1ccc(NC(=O)[C@H]2C[C@H]3CCC[C@H]3N(C(=O)c3c(C)cccc3F)[C@H]2c2ccc(NC3CCCC3)cc2)cc1C(F)(F)F [Compound 47] , can you help?
> 7.30

Looking for the measured pIC50 of Cc1ccc(NC(=O)[C@H]2CCCN(C(=O)c3c(C)noc3C)[C@H]2c2ccc(NC3CCCC3)cc2)cc1C(F)(F)F [Compound 190] , can you help?
5.00 to 5.70

Looking for the measured pIC50 of Cc1cccc(F)c1C(=O)N1[C@@H]2COC[C@@H]2CC(C(=O)Nc2cccnc2)[C@@H]1c1ccc(NC2CCOCC2)cc1 (mixture of isomers) [Compound 128] , can you help?
5.00 to 5.70

Looking for the measured pIC50 of Cc1ccc(NC(=O)[C@H]2CCCN(S(=O)(=O)c3c(F)cccc3F)[C@H]2c2ccc(NC3CCCC3)cc2)cc1C(F)(F)F [Compound 19] , can you help?
5.00 to 5.70

Looking for the measured pIC50 of Cc1cccc(F)c1C(=O)N1[C@@H]2CCC[C@@H]2C[C@H](C(=O)Nc2ccc(NC=O)c(O)c2)[C@@H]1c1ccc(NC2CCCC2)cc1 (racemic) [Compound 68] , can you help?
5.70 to 6.30

Looking for the measured pIC50 of Cc1cccc(F)c1C(=O)N1[C@@H]2CCC[C@@H]2C[C@H](C(=O)Nc2cccc(S(C)(=O)=O)c2)[C@@H]1c1ccc(NC2CCCC2)cc1 (racemic) [Compound 70] , can you help?
5.00 to 5.70

Looking for the measured pIC50 of Cc1ccc(NC(=O)[C@H]2CCCN(S(=O)(=O)c3ccccc3OC(F)(F)F)[C@H]2c2ccc(NC3CCCC3)cc2)cc1C(F)(F)F [Compound 24] , can you help?
< 5.00

Looking for the measured pIC50 of Cc1cccc(F)c1C(=O)N1C2CCC[C@@H]2C[C@H](C(=O)Nc2cccc(C(F)(F)F)c2)[C@@H]1c1ccc(NC2CCCC2)cc1 (relative stereo) [Compound 46] , can you help?
6.30 to 7.30

Looking for the measured pIC50 of Cc1ccc(NC(=O)[C@H]2CCCN(c3ncnc4ccccc34)[C@H]2c2ccc(NC3CCCC3)cc2)cc1C(F)(F)F [Compound 5] , can you help?
5.00 to 5.70

Looking for the measured pIC50 of Cc1cccc(F)c1C(=O)N1CCC[C@H](c2nc3ccc(C(C)(C)C)cc3[nH]2)[C@@H]1c1ccc(NC2CCCC2)cc1 [Compound 180] , can you help?
5.00 to 5.70

More entries:
Looking for the measured pIC50 of Cc1ccc(NC(=O)[C@H]2CCCN(S(=O)(=O)c3c(F)c(F)c(F)c(F)c3F)[C@H]2c2ccc(NC3CCCC3)cc2)cc1C(F)(F)F [Compound 37] , can you help?
5.00 to 5.70

Looking for the measured pIC50 of Cc1ccc(NC(=O)[C@@H]2CCC3CCc4ccccc4C(=O)N3[C@@H]2c2ccc(NC3CCCC3)cc2)cc1C(F)(F)F (stereo partly drawn) [Compound 45] , can you help?
5.00 to 5.70

* * *

Test Target: C5aR (Homo sapiens (Human))
Test Name: Inhibition of C5a-C5aR binding determined by cell migration assay (U937/C5aR cells)
Type: cell-based
Protocol Conditions: U937/C5aR cell migration towards human C5a, 180 min
pIC50: −log10 of the molar value.
Experimental Readout: pIC50

Looking for the measured pIC50 of Cc1ccc(NC(=O)C2C[C@@H]3CCC[C@@H]3N(C(=O)c3c(C)cccc3F)C2c2ccc(NC3CCCC3)cc2)cc1C(F)(F)F (relative stereo) [Compound 193] , can you help?
6.30 to 7.30

Looking for the measured pIC50 of Cc1cccc(F)c1C(=O)N1C(c2ccc(NC3CCCC3)cc2)C(C(=O)Nc2ccc3c(c2)CCN(C)C3)C[C@@H]2CCC[C@@H]21 (relative stereo) [Compound 77] , can you help?
< 5.30

Looking for the measured pIC50 of Cc1cccc(F)c1C(=O)N1C2CCC[C@@H]2C[C@H](C(=O)Nc2cccc(C(F)(F)F)c2)[C@@H]1c1ccc(NC2CCCC2)cc1 (relative stereo) [Compound 46] , can you help?
6.30 to 7.30

// moving on: another record for pIC50
Looking for the measured pIC50 of Cc1cccc(F)c1C(=O)N1C(c2ccc(NC3CCCC3)cc2)C(C(=O)Nc2ccc3c(cnn3C)c2)C[C@@H]2COC[C@@H]21 (relative stereo) [Compound 121] , can you help?
6.30 to 7.30

* * *

Form field: IC50 (one value per entry).
Test Target: C5aR (Homo sapiens (Human))
Test Name: Inhibition of C5a-C5aR binding determined by cell migration assay (U937/C5aR cells)
Type: cell-based
Protocol Conditions: U937/C5aR cell migration towards human C5a, 180 min

Looking for the measured IC50 of Cc1ccc(NC(=O)[C@H]2CCCN(c3ncnc4ccccc34)[C@H]2c2ccc(NC3CCCC3)cc2)cc1C(F)(F)F [Compound 5] , can you help?
50 to 500 nM

Looking for the measured IC50 of Cc1cccc(F)c1C(=O)N1[C@@H]2CCC[C@@H]2C[C@H](C(=O)Nc2ccc3c(cnn3C)c2)[C@@H]1c1ccc(NC2CCCC2)cc1 [Compound 49] , can you help?
< 50 nM

Looking for the measured IC50 of Cc1cccc(F)c1C(=O)N1C2CCC[C@@H]2C[C@H](C(=O)Nc2ccc3cccnc3c2)[C@@H]1c1ccc(NC2CCCC2)cc1 (mixture of isomers) [Compound 73] , can you help?
50 to 500 nM

Looking for the measured IC50 of Cc1ccc(NC(=O)[C@H]2OCCN(C(=O)c3c(C)cccc3F)[C@H]2c2ccc(NC3CCCC3)cc2)cc1C(F)(F)F (relative stereo) [Compound 187] , can you help?
50 to 500 nM

Looking for the measured IC50 of Cc1cccc(F)c1C(=O)N1[C@@H]2COC[C@@H]2C[C@H](C(=O)Nc2ccc3c(cnn3C)c2)[C@@H]1c1ccc(NC2CCCC2)cc1 [Compound 126] , can you help?
< 50 nM

Looking for the measured IC50 of Cc1ccc(NC(=O)[C@H]2CC[C@@H]3Cc4ccccc4C(=O)N3C2c2ccc(NC3CCCC3)cc2)cc1C(F)(F)F (relative stereo) [Compound 43] , can you help?
> 5000 nM

// moving on: another record for IC50
Looking for the measured IC50 of Cc1cccc(F)c1C(=O)N1C2CCC[C@@H]2C[C@H](C(=O)Nc2ccc3cccnc3c2)[C@@H]1c1ccc(NC2CCOCC2)cc1 (relative stereo) [Compound 90] , can you help?
50 to 500 nM
